Hi there, I'd appreciate the recorded TGI for every entry that follows.
# Tested on: MOLT-4 leukemia
# assay_details: NCI tumour cell line growth inhibition, 48 h
# value in µM; strip the unit string

Lab note: MOLT-4 leukemia assay, enter TGI for C#CCC(O)c1ccc(OC)c(OCc2ccccc2)c1 (stereo not drawn) here
56.6

Lab note: MOLT-4 leukemia assay, enter TGI for Cc1cc2c3c(nc4ccccc42)C(=O)c2cccnc2-c3n1 here
5.69

Lab note: MOLT-4 leukemia assay, enter TGI for Cc1cc2c(C(C)C)c(O)c(O)c(/C=N/O)c2c(O)c1-c1c(C)cc2c(C(C)C)c(O)c(O)c(/C=N/O)c2c1O here
7.64

Lab note: MOLT-4 leukemia assay, enter TGI for COc1ccc(/C(=N/Nc2nc3ccccc3n2Cc2ccccc2)C(=O)O)cc1 here
79.6

Lab note: MOLT-4 leukemia assay, enter TGI for Cc1cc(NS(=O)(=O)c2ccc(-c3cnc(C4CC4)o3)cc2)ccc1Cl here
46.8

Lab note: MOLT-4 leukemia assay, enter TGI for NNC(=O)N/N=C(/CC1(O)C(=O)Nc2ccc(Br)cc21)c1ccccc1 (stereo not drawn) here
44.2

Lab note: MOLT-4 leukemia assay, enter TGI for [CH3][Ge]([CH3])([CH2]CC#N)[S]c1ccccc1 here
17.6

Lab note: MOLT-4 leukemia assay, enter TGI for CCN(CC)CCC(=O)c1ccc(Cl)c(Cl)c1 here
82.8

Lab note: MOLT-4 leukemia assay, enter TGI for CC(C)(C)c1cc(Cc2ccc(S(C)(=O)=O)cc2)c(O)c(C(C)(C)C)c1 here
27.4

Lab note: MOLT-4 leukemia assay, enter TGI for O=C1NC(=S)NC(=O)C1=Cc1ccc([N+](=O)[O-])o1 here
43.4

Lab note: MOLT-4 leukemia assay, enter TGI for COc1ccc(/C=C/C(=O)C(=O)/C=C/c2ccc(OC)c(OC)c2)cc1OC here
19.3

Lab note: MOLT-4 leukemia assay, enter TGI for CC(=O)OC1CCn2c1nc1c2C(=O)C=C(N2CC2)C1=O (stereo not drawn) here
0.208

Lab note: MOLT-4 leukemia assay, enter TGI for CC(=O)OC/C=C\Cn1ncc(=O)[nH]c1=O here
44

Lab note: MOLT-4 leukemia assay, enter TGI for COC(=O)NCCc1[nH]nc2c1C(=O)C=C(Nc1ccccc1OC)C2=O here
55.1

Lab note: MOLT-4 leukemia assay, enter TGI for Nc1ccc(C2(c3ccc(N)cc3)C3CC4CC(C3)CC2C4)cc1 here
28.2

Lab note: MOLT-4 leukemia assay, enter TGI for CCN(CC)Cc1cc(Nc2ccnc3ccc(OC)cc23)ccc1O here
16.8

Lab note: MOLT-4 leukemia assay, enter TGI for N#C/C(=C\c1ccc(O)c(O)c1)C(=O)NCc1cccc(C(F)(F)F)c1 here
41.2

Lab note: MOLT-4 leukemia assay, enter TGI for COc1ccc(C(=O)C(c2ccc(OC)cc2)C2(O)C(=O)Nc3c(Cl)cc(Cl)cc32)cc1 (stereo not drawn) here
36.2
